System: HS 578T breast
Run Description: NCI-60 one-dose screen, 48 h
Protocol Conditions: 10 µM unless noted
This is part of a sample that, as a whole, favours compounds with a hit. Of some 83,000 tested, about 20% had one in any assay. Active and inactive are the calls of the source. The calls were made as follows: active = growth percent below 10; inactive = the rest.
Outcome codes: active, inactive

>>> cat("O=C1NC(=O)c2c1c1c3ccccc3ccc1c1[nH]c3ccccc3c21")
"inactive"
>>> cat("C#CCOc1ccccc1C(Nc1ccccc1)c1nnnn1C1CCCCC1 (stereo not given)")
"inactive"
>>> cat("CCCCCCNC(=O)Oc1ccc(/C(=C(\\C)c2ccc(OC)cc2)c2ccc(OCCN(C)C)cc2)cc1")
"inactive"
>>> cat("O=C(N/N=C\\c1ccc(Cl)cc1)c1ccc2nc(-c3ccc(Br)cc3)[nH]c2c1")
"inactive"
>>> cat("NS(=O)(=O)c1ccc(Nc2nc(N/N=C/c3ccc(F)cc3)nc(Nc3ccccc3)n2)cc1")
"inactive"
>>> cat("COc1ccc(-c2nn(-c3ccccc3)cc2/C=C/C(=O)c2ccc(NC(=O)CCCCCCC(=O)NO)cc2)cc1")
"inactive"
>>> cat("C/C(=N\\NC(=O)CSc1nc2sc3c(c2c(=O)n1-c1ccccc1)CCC(C)C3)c1ccc(Cl)cc1 (stereo not given)")
"inactive"
>>> cat("C=C(C)[C@@H]1CC[C@]2(C(=O)NCCCN(CCC#N)CCC#N)CC[C@]3(C)[C@H](CC[C@@H]4[C@@]5(C)CCC(=O)C(C)(C)[C@@H]5CC[C@]43C)[C@@H]12")
"inactive"
>>> cat("O=C(/C=C1\\C=CN(CCCCO)c2ccccc21)n1ccc2ccccc21")
"inactive"
>>> cat("Oc1ccc(CSc2nnc(-c3ccc(Br)cc3)o2)c2cccnc12")
"active"
>>> cat("O=C(NNc1nc2cc(F)c(F)cc2n2cccc12)c1cccnn1")
"inactive"
>>> cat("CCOC(=O)c1c(NCC(=O)Nc2ccc(Br)cc2)sc2c1CCCC2")
"inactive"
>>> cat("C#C[C@]1(O)CC[C@H]2[C@@H]3CC=C4c5sc(Nc6cc(OC)ccc6OC)nc5CC[C@]4(C)[C@H]3CC[C@@]21C")
"active"
>>> cat("COc1ccc(-c2cc(-c3cccc4ccccc34)n3c(n2)nc2ccccc23)cc1OC")
"inactive"
>>> cat("CCCCCCNC(=O)Oc1ccc(/C(=C(/C)c2ccc(OC)cc2)c2ccc(OCCN3CCCC3)cc2)cc1")
"inactive"
>>> cat("Nc1nc(N)c2c(n1)NC(c1ccc(Cl)cc1)CC(c1ccc(Nc3nc(NCCO)nc(Nc4ccc(Cl)cc4)n3)cc1)=N2 (stereo not given)")
"inactive"
>>> cat("O=C1Nc2ccc(Cl)cc2/C1=C/c1ccc(OCc2ccc(F)cc2)cc1")
"inactive"
>>> cat("Cn1c2ccccc2c2c3c(c4c5ccc(Br)cc5oc4c21)C(=O)N(O)C3=O")
"inactive"
>>> cat("O=c1oc2ccc(-c3ccc(F)cc3F)cc2c(=O)n1-c1cccc(C(F)(F)F)c1")
"active"
>>> cat("C#C[C@]1(O)CC[C@H]2[C@@H]3CC=C4c5sc(Nc6ccncc6)nc5CC[C@]4(C)[C@H]3CC[C@@]21C")
"active"
>>> cat("COc1cc(-c2noc(C[C@@H](NC(=O)OCc3ccccc3)C(C)C)n2)cc(OC)c1OC")
"inactive"
>>> cat("COc1ccc2c(ccn2C(=O)N2c3ccccc3Sc3ccccc32)c1")
"inactive"
>>> cat("O=C(Nc1cccc(-c2nc(-c3ccc(NC(=O)c4cccnc4)cc3Cl)no2)c1)Nc1ccc(NC(=O)C2CC2)c(C(F)(F)F)c1")
"active"
>>> cat("N/C(=N\\OC(=O)CSc1nc2ccccc2s1)c1ccc(Cl)cc1")
"inactive"
>>> cat("CCNC(=O)Oc1ccc(/C(=C(/C)c2ccc(Cl)cc2)c2ccc(OCCN(C)C)cc2)cc1")
"inactive"
>>> cat("Oc1ccc(CSc2nnc(-c3ccc(Cl)cc3)o2)c2cccnc12")
"active"
>>> cat("CNC(=O)c1cc(N2CCc3cc(NC(=O)Nc4ccc(Cl)c(Cl)c4)ccc32)ccn1")
"inactive"
>>> cat("C/C(=C(/c1ccc(O)cc1)c1ccc(OCCN2CCCC2)cc1)c1ccc(Cl)cc1")
"inactive"
>>> cat("O=C(O)c1ccc(-n2cc(CNc3ccc(Cl)cc3)c(-c3ccc(F)cc3)n2)cc1")
"inactive"
>>> cat("CC1(C)CC[C@]2(C(=O)N3CCCN(CC#N)CC3)CC[C@]3(C)C(=CC[C@@H]4[C@@]5(C)CC[C@H](O)C(C)(C)[C@@H]5CC[C@]43C)[C@H]2C1")
"inactive"
>>> cat("COc1cc(/C=C/C(=O)c2ccc(NC(=O)CSc3nnc(-c4ccc5nc(-c6ccccc6)[nH]c5c4)o3)cc2)cc(OC)c1OC")
"inactive"
>>> cat("CC(=O)Nc1ccc(NC(=O)Nc2cccc(-c3nc(-c4ccc(NC(=O)c5cccs5)cc4Cl)no3)c2)cc1C(F)(F)F")
"active"
>>> cat("O=C(Cn1cc(CN2C(=O)c3ccc([N+](=O)[O-])cc3C2=O)nn1)Nc1ccccc1Br")
"inactive"
>>> cat("C[C@H]1[C@H](C)CC[C@]2(COC(=O)c3cccnc3)CC[C@]3(C)C(=CC[C@@H]4[C@@]5(C)CCCNC(C)(C)[C@@H]5CC[C@]43C)[C@H]12")
"inactive"
>>> cat("CNC(=O)c1cc(Oc2ccc3nc(NC(=O)c4ccc(CN5CCCN(C)CC5)c(C(F)(F)F)c4)sc3c2)ccn1")
"active"

====

Test system: HOP-92 NSCLC
Run Description: NCI-60 one-dose screen, 48 h
Protocol Conditions: 10 µM unless noted
About 83,000 compounds went through this panel and 20% of them were active in at least one assay; those are over-represented in the sample as a whole. Active and inactive are the calls of the source. How the source made its calls: active means growth percent below 10; inactive means the rest.
Outcome codes: active, inactive

>>> cat("C(=C(\\C1=NCCN1)n1cnc2ccccc21)/c1cccc2ccccc12")
"active"
>>> cat("COc1ccc(-c2nc(SCCC(C)C)nc(N/N=C\\c3ccc(O)cc3)c2C#N)cc1")
"inactive"
>>> cat("COc1ccc([C@@H]2[C@@H](O)C(=O)N2c2cc(OC)c(OC)c(OC)c2)cc1Cl")
"active"
>>> cat("O=S(=O)(Nc1ccc(-n2cnc3cc(-c4ccc(O)cc4)ccc32)cc1)C1CC1")
"inactive"
>>> cat("CCOc1c(C#N)c(Nc2ccc(S(N)(=O)=O)cc2)c(C#N)c2nnc(C)n12")
"inactive"
>>> cat("Cc1cc2nc(C(Cl)Cl)nc(-c3ccco3)n2n1")
"inactive"
>>> cat("COc1cc(CNC(=O)/C=C/c2ccccc2)ccc1OCC(=O)NO")
"inactive"
>>> cat("O=C(Nc1ccc(F)cc1)c1cc(-c2ccc(F)cc2F)ccc1O")
"active"
>>> cat("Oc1ccc(CSc2nnc(-c3ccncc3)n2-c2ccccc2)c2cccnc12")
"active"
>>> cat("COc1ccc([C@H]2[C@H](O)C(=O)N2c2cc(OC)c(OC)c(OC)c2)cc1Cl")
"active"
>>> cat("COc1ccc(-c2nc3cc(Cl)c(Cl)cc3n2CC(=O)N=Nc2c(O)[nH]c3ccc(Br)cc23)cc1")
"active"
>>> cat("O=C(NNc1nc2cc(F)ccc2n2cncc12)c1cnccn1")
"inactive"
>>> cat("CCN(CC)CCCC(C)NCC(=O)NC(c1ccc2c(c1)OCO2)c1cc(Cl)c2cccnc2c1O (stereo not given)")
"inactive"
>>> cat("CC(=O)c1sc(Nc2cccc(Nc3nc(C)c(C)s3)c2)nc1C")
"inactive"
>>> cat("COc1ccccc1/C=C/C=N/NC1=NC2C(S1)N(C)C(=O)N2c1ccccc1 (stereo not given)")
"inactive"
>>> cat("C=CCn1c(SCC(=O)Nc2cccc(C(=O)/C=C/c3cccc([N+](=O)[O-])c3)c2)nc2ccccc2c1=O")
"inactive"
>>> cat("COCCOc1ccc(-c2csc(NC(C)=O)n2)cc1NS(=O)(=O)c1cccc2c(N(C)C)cccc12")
"inactive"
>>> cat("N#Cc1c(NC(=O)c2ccc(F)c(Cl)c2)sc2c1CCC(=O)C2")
"active"
>>> cat("O=C(CCCCCCN1CC(=O)N2[C@@H](c3ccccc3)c3[nH]c4ccccc4c3C[C@H]2C1=O)NO")
"inactive"
>>> cat("C=CCn1c(SCC(=O)Nc2cccc(C(=O)/C=C/c3cc(OC)c(OC)c(OC)c3)c2)nc2ccccc2c1=O")
"inactive"

====

Listing: growth of selected molecules
Tested on: OVCAR-8 ovarian
Run Description: NCI-60 one-dose screen, 48 h (100 = growth as untreated, 0 = no growth, -100 = all killed)
Protocol Conditions: 10 µM unless noted
The panel holds about 83,000 compounds, 20% with a hit somewhere; the sample as a whole holds those more often.
Assay Readout: growth (%)

>>> assay_value("CNC(=O)c1c(NC(=O)c2ccc(F)cc2F)sc2c1CCC(=O)C2")
13.9
>>> assay_value("COc1ccc(N2C(=O)c3cc(OC)c(OC)cc3NC2SCc2ccccc2)cc1 (centres undefined)")
103
>>> assay_value("O=S(=O)(Nc1ccc(-n2cnc3cc(-c4ccc(O)cc4)ccc32)cc1)C1CC1")
88.7
>>> assay_value("COc1ccccc1/C=C/C=N/NC1=NC2C(S1)N(C)C(=O)N2c1ccccc1 (centres undefined)")
24.4
>>> assay_value("Cc1ccc(NC(=O)c2cccc(CN3CCN(C)CC3)c2)cc1Oc1ccc(-c2[nH]nc3ncnc(N)c23)cc1")
83.1
>>> assay_value("CCCC(=O)NC(c1cccnc1)c1cc(C(C)=O)c2cccnc2c1O (centres undefined)")
21.7
>>> assay_value("C#C[C@]1(O)CC[C@H]2[C@@H]3CC=C4c5sc(-c6ccc(OC)cc6)nc5CC[C@]4(C)[C@H]3CC[C@@]21C")
84.6
>>> assay_value("CN1CCN(c2ccc(NC(=O)Nc3ccc4c(ccn4-c4cccc(C(N)=O)n4)c3)cc2C(F)(F)F)CC1")
77.6
>>> assay_value("COc1ccc(S(=O)(=O)NCCCNc2nccc(-n3cnc4ccccc43)n2)cc1")
93.7

Data credit: PubChem BioAssay (NCI)
